target: T1, huIL-17RA-FLAG-polyHis (human, UniProt Q96F46 33-320); assay: binning; IL-17RA held by bead mAb N
T1 construct: also called IL-17RA-FLAG-pHis; wild-type IL-17RA
property.name: normalized MFI
Answer with a bare number; do not write a unit.

binder="AMH16/AML16 (antibody, IgG2, V domains shown, human mAb from IgG2 XenoMouse mice; also called AM-16; antibody O) VH: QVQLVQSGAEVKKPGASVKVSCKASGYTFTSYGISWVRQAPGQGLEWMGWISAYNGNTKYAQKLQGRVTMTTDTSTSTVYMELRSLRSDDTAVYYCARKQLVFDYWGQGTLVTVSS VL: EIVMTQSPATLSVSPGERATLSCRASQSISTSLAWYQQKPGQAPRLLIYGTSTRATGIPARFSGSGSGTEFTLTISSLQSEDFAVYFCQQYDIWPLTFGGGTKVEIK" measured_value=83

Kindly consider the entry below.
Given the binder AMH8/AML8 (antibody, IgG2, V domains shown, human mAb from IgG2 XenoMouse mice; also called AM-8; antibody C) VH: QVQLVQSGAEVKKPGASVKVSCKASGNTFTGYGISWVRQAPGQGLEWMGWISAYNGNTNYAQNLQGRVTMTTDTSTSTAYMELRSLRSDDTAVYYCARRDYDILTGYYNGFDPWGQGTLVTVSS VL: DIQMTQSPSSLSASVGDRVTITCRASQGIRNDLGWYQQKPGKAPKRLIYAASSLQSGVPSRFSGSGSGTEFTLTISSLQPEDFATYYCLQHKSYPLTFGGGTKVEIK , what is its reported normalized MFI?
3630
